Values from PubChem BioAssay

# Protocol Description: small-molecule microarray binders of probe aLefty2, primary screen, biochemical, biotinylated probe, 635/667 nm fluorescence (AID 1094);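 also: score merges spot fluorescence near 667 nm with spot signal-to-noise ratio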
# Setup Conditions: higher = more signal
param class (str): category from composite z-score; see ranges range A (below -0.07), range B (-0.07 to below 0.1), range C (0.1 or more)

// below: answered compounds
CCC[C@@H]1C[C@@]1(CCC)[C@@H](NC(=O)c1ccccc1)c1cccc(Cl)c1: range C
COc1ccc(CCNC(=O)[C@@]2(Sc3ccc(C)cc3)CC(=O)N(C3Cc4ccccc4C3)[C@@H]2c2ccc(CO)cc2I)cc1: range C
O=C1N(Cc2ccccc2)c2ccccc2[C@@H]2OC(c3ccc(OCCCO)cc3)=N[C@]12CCS(=O)(=O)c1ccccc1: range C
COc1cc2c(cc1OC)CN(C(=O)[C@@H]1[C@H]3C(=O)O[C@H](c4ccccc4)[C@H](c4ccccc4)N3[C@H](c3ccc(O)cc3)[C@@]13C(=O)Nc1ccccc13)CC2: range A

Ask | Please indicate the class for CCCC[C@@H]1C[C@H]1[C@@H](NC(=O)C(C)(C)C)c1ccc(C(F)(F)F)cc1 based on its composite z-score.
Reply | range B

Ask | Please indicate the class for COc1ccc(C#Cc2ccc3c(c2)[C@]2(C(=O)N3)[C@H](C(=O)NC[C@H](O)c3ccccc3)[C@H]3C(=O)O[C@H](c4ccccc4)[C@H](c4ccccc4)N3[C@@H]2c2ccc(O)cc2)cc1 based on its composite z-score.
Reply | range B
